- System: T-47D breast
- protocol: NCI-60 one-dose screen, 48 h (100 = growth as untreated, 0 = no growth, -100 = all killed)
- measurement_setup: 10 µM
This is part of a sample that, as a whole, favours compounds with a hit. Of some 83,000 tested, about 20% had one in any assay. Calls of active or inactive are those of the source. Rule for the calls: active = growth percent below 10; inactive = the rest.
growth by entry:
observed_property: growth

compound: CN1CCN(Cc2ccc(C(=O)Nc3cccc(Nc4ccc5cc(O)ccc5n4)c3)cc2C(F)(F)F)CC1
observed_property: growth
measurement: -11.7% (active)
--
compound: COc1ccc2ncc(C#Cc3cncc(C(=O)Nc4ccc(CN5CCN(C)CC5)c(C(F)(F)F)c4)c3)n2n1
observed_property: growth
measurement: 61.8% (inactive)
--
compound: COc1ccc(Nc2nc(N)n(Cc3cccc(Br)c3)n2)cc1
observed_property: growth
measurement: 13.4% (inactive)
--
compound: CC(=C(c1ccc(OCCCN(C)C)cc1)c1ccc(OCCCN(C)C)cc1)c1ccccc1
observed_property: growth
measurement: -84.9% (active)
--
compound: CN1CCN(c2ccc(Nc3nc(NCCCNC(=O)c4ccc(F)cc4)c4sccc4n3)cc2)CC1
observed_property: growth
measurement: 51.5% (inactive)
--
compound: CC1=C2C(=C[C@@](C)(COCOCCCl)[C@@H]2O)C(=O)[C@](C)(O)C12CC2
observed_property: growth
measurement: -15.8% (active)
--
compound: O=C(/C=C/Nc1ccc(F)cc1F)c1ccc2c(c1)Nc1ccccc1S2
observed_property: growth
measurement: 80.1% (inactive)
--
compound: COC[C@@H](CC(C)C)N=C1N/C(=C\c2ccc3ncsc3c2)C(=O)N1C
observed_property: growth
measurement: -7.71% (active)
--
compound: CCOc1ccc2ncc(C#Cc3cncc(C(=O)Nc4ccc(CN5CCN(C)CC5)c(C(F)(F)F)c4)c3)n2n1
observed_property: growth
measurement: 71.9% (inactive)
--
compound: CC(C)NC(=O)c1cc(-c2ccc(NC(=O)Nc3ccc(N4CCN(C)CC4)c(C(F)(F)F)c3)cc2)nc2cccnc12
observed_property: growth
measurement: -16.6% (active)
--
compound: O=C(Nc1nc2ccccc2s1)c1ccc(Br)cc1
observed_property: growth
measurement: 44.1% (inactive)
--
compound: CN1C/C(=C\c2ccc(O)cc2O)c2[o+]c3cc(O)ccc3cc2C1
observed_property: growth
measurement: 3.02% (active)
--
compound: CCCCSc1nc(Nc2ccc(/C(C)=N/NC(N)=S)cc2)c(C#N)c(-c2ccc(OC)cc2)n1
observed_property: growth
measurement: 67.2% (inactive)
--
compound: O=C(c1ccc(Cl)cc1)C1[C@H](c2ccccc2Br)[C@@H](c2ccccc2)NC12C(=O)Nc1ccccc12 (some centres not stated)
observed_property: growth
measurement: 48.6% (inactive)
--
compound: COc1cc2c3c(n(CCCn4ccnc4)c(=O)c2cc1OC)-c1nc2c(cc1C3=O)OCO2
observed_property: growth
measurement: 21.8% (inactive)
--
compound: O=C1Nc2ccc(Cl)cc2/C1=C/c1ccc(OCc2ccc(Br)cc2F)cc1
observed_property: growth
measurement: 10.1% (inactive)
--
compound: COc1ccc(CN2[C@H](C(=O)NCc3ccc(C(=O)NO)cc3)Cc3c([nH]c4ccccc34)[C@H]2C2CC2)cc1
observed_property: growth
measurement: 40.4% (inactive)
--
compound: COc1ccc2c3nc4cc(C)c(C)cc4nc3n(CCN(C)C)c2c1
observed_property: growth
measurement: -12.2% (active)
--
compound: COc1ccc2nc(Nc3cccc(NC(=O)c4ccc(CN5CCN(C)CC5)c(C(F)(F)F)c4)c3)ccc2c1
observed_property: growth
measurement: -25.9% (active)
--
compound: COc1ccc(CCN2C(=O)/C(=C/c3csc(C#N)n3)SC2=S)cc1
observed_property: growth
measurement: -5.27% (active)
--
compound: CCOC(=O)C1=C(N)N(c2ccc(C)cc2)C2=C(C(=O)CC(C)(C)C2)C1c1ccccc1OC (configuration not stated)
observed_property: growth
measurement: 97.8% (inactive)
--
compound: COc1ccc2[nH]c(=O)c(CSc3nccc(-c4ccc(Cl)cc4)n3)cc2c1
observed_property: growth
measurement: -8.11% (active)

---

- System: NCI-H322M lung
- protocol: NCI-60 one-dose screen, 48 h (100 = growth as untreated, 0 = no growth, -100 = all killed)
- measurement_setup: 10 µM
- Procedure: Growth inhibition of the NCI-H322M human Non-Small Cell Lung tumor cell line is measured as a screen for anti-cancer activity. Cells are grown in 96 well plates and exposed to the test compound for 48 hours. Compounds are tested at a single concentration, which is 10^-5 M for most compounds. The reported endpoint is percent growth (GI% or GIPRCNT), where numbers from 0 - 100% represent growth inhibition, and numbers from -100% - 0 represent cell death. […]
Compounds without any hit were thinned out: in the full panel of roughly 83,000, 20% have a hit.
Binary call on growth with cut-off 70%: strictly below means 1, and equality or higher means 0.

compound: Cc1ccc(-c2ccc(SCC(=O)Nc3ccc(S(N)(=O)=O)cc3Br)nn2)cc1
study_system: NCI-H322M lung
assigned_label: 1
--
compound: Cc1ccc(-c2nc3ccc(C(=O)N=Nc4c(O)[nH]c5ccc(Cl)cc45)cc3[nH]2)cc1
study_system: NCI-H322M lung
assigned_label: 1
--
compound: O=C(Nc1nc2ccccc2s1)c1ccc(Br)cc1
study_system: NCI-H322M lung
assigned_label: 0
--
compound: CSc1nc(-c2cccc(C)c2)c2cc(-c3ccccc3)n(C)c2n1
study_system: NCI-H322M lung
assigned_label: 1
--
compound: O=[N+]([O-])c1ccc(-c2nc(-c3ccccc3)c(-c3ccccc3)n2-c2ccc(S(=O)(=O)Nc3ncccn3)cc2)cc1
study_system: NCI-H322M lung
assigned_label: 1
--
compound: O=C(c1ccc(-n2c(=O)[nH]c3ccccc3c2=O)cc1)N1CCOCC1
study_system: NCI-H322M lung
assigned_label: 0
--
compound: O=C(N/C(=C1/OCCN1Cc1ccccc1)[P+](c1ccccc1)(c1ccccc1)c1ccccc1)c1ccccc1
study_system: NCI-H322M lung
assigned_label: 1
--
compound: Cc1ccc(C(=O)Nc2ccc(-n3c(C)nc4c(cnn4-c4ccccc4)c3=O)cc2)cc1
study_system: NCI-H322M lung
assigned_label: 0
--
compound: CN(C(=O)c1ccc(C(F)(F)F)cc1C(F)(F)F)c1sc2c(c1C#N)CCC(=O)C2
study_system: NCI-H322M lung
assigned_label: 0
--
compound: O=C(CNc1nc(-c2ccccc2)cs1)Nc1ccc(Cl)cc1
study_system: NCI-H322M lung
assigned_label: 1
--
compound: COc1ccc2cc([C@H](C)C(=O)NCc3ccccc3)ccc2c1
study_system: NCI-H322M lung
assigned_label: 1
--
compound: O=C(c1ccc(O)cc1)C1[C@H](c2ccccc2Br)[C@@H](c2ccccc2)NC12C(=O)Nc1ccc(Br)cc12 (some centres not stated)
study_system: NCI-H322M lung
assigned_label: 1
--
compound: COc1ccc2nc(Nc3cccc(NC(=O)c4ccc(CN5CCN(C)CC5)c(C(F)(F)F)c4)c3)ccc2c1
study_system: NCI-H322M lung
assigned_label: 1
--
compound: COc1ccc(/C(C)=N/N=C2C(=O)N(C)c3ccc(Br)cc32)cc1S(N)(=O)=O
study_system: NCI-H322M lung
assigned_label: 0
--
compound: O=C1Nc2ccc(Cl)cc2/C1=C/c1ccc(OCc2ccccn2)cc1
study_system: NCI-H322M lung
assigned_label: 1
--
compound: CN(C(=O)c1ccc(C(C)(C)C)cc1)c1sc2c(c1C#N)CCC(=O)C2
study_system: NCI-H322M lung
assigned_label: 0
--
compound: O=C1Nc2ccc(F)cc2/C1=C/c1cccc(OCc2ccccn2)c1
study_system: NCI-H322M lung
assigned_label: 0

---

- System: EKVX NSCLC
- protocol: NCI-60 one-dose screen, 48 h (100 = growth as untreated, 0 = no growth, -100 = all killed)
- measurement_setup: 10 µM
The panel holds about 83,000 compounds, 20% with a hit somewhere; the sample as a whole holds those more often.

molecule: Cc1noc2c(Cc3ccccc3)nn(CC(=O)N/N=C/c3ccc(Br)cc3)c(=O)c12
unit_of_measurement: %
growth: 65.8
//
molecule: O=C1Nc2cc(Cl)ccc2/C1=C/c1cccc(OCc2ccccc2)c1
unit_of_measurement: %
growth: 11.3
//
molecule: Cc1ccc(C(C)C)cc1NC(=O)c1ccccc1O
unit_of_measurement: %
growth: 49.7
//
molecule: CN1CCN(c2ccc(Nc3nc(N4CCN(S(=O)(=O)c5ccc(F)cc5)CC4)c4sccc4n3)cc2)CC1
unit_of_measurement: %
growth: -89.5
//
molecule: COc1ccc(CN2[C@H](C(=O)NCc3ccc(C(=O)NO)cc3)Cc3c([nH]c4ccccc34)[C@H]2C2CC2)cc1
unit_of_measurement: %
growth: 51.6
//
molecule: Cc1ccc(C(=O)CSc2nnc(-c3c[nH]c4ccccc34)n2-c2ccccc2)cc1
unit_of_measurement: %
growth: 53
//
molecule: Cc1ccc(-c2cc(-c3cc4ccccc4nc3Cl)[nH]c(=O)n2)cc1
unit_of_measurement: %
growth: 27.4
//
molecule: O=c1[nH]c2ccccc2cc1CSc1ccc(Nc2nccc(-c3ccc(Cl)cc3)n2)cc1
unit_of_measurement: %
growth: -49.6
//
molecule: CSc1nc(-c2cccc(C)c2)c2cc(-c3ccccc3)n(C)c2n1
unit_of_measurement: %
growth: 18.4
//
molecule: O=C(Nc1ccccc1)Nc1nc2ccccc2s1
unit_of_measurement: %
growth: 64.1
//
molecule: COc1cc(/C=C/C(=O)c2ccc(S(=O)(=O)NCCNc3nc(Nc4ccc(F)cc4)nc(N(C)C)n3)cc2)cc(OC)c1OC
unit_of_measurement: %
growth: 48.4
//
molecule: Cc1cc(=O)oc2cc(OCCCCOc3ccc(/C=C/C(=O)Nc4ccccc4[N+](=O)[O-])cc3)ccc12
unit_of_measurement: %
growth: 105
//
molecule: CN1CCN(c2ccc(Nc3nc(NCCNC(=O)c4ccc(C(F)(F)F)cc4)c4sccc4n3)cc2)CC1
unit_of_measurement: %
growth: 59.7
//
molecule: Cc1ccc([N+](=O)[O-])c(C(=O)Nc2ccc(-c3ccc4c(c3)NC(=O)/C4=C\c3ccc[nH]3)cc2)c1
unit_of_measurement: %
growth: 25.7
//
molecule: O=C1CCC(N2Cc3cc(CC(=O)Nc4ccc(N5CCCCC5)cc4)ccc3C2=O)C(=O)N1 (stereo not drawn)
unit_of_measurement: %
growth: 83.4
//
molecule: COc1ccc(C2N(c3ccc(Br)cc3)N=C(C(C)=O)N2[C@H]2[C@H](OC(C)=O)O[C@H](COC(C)=O)[C@@H](OC(C)=O)[C@@H]2OC(C)=O)cc1 (stereo partly drawn)
unit_of_measurement: %
growth: 59.4
//
molecule: COc1ccc(NC(=O)CSc2nnc(-c3ccc4nc(-c5ccc(Cl)cc5)[nH]c4c3)o2)cc1
unit_of_measurement: %
growth: 98.8
//
molecule: O=C(CSc1nnc(-c2ccc3nc(-c4ccc(Cl)cc4)[nH]c3c2)o1)Nc1ccc(Cl)cc1
unit_of_measurement: %
growth: 5.97
